- assayed-target: human serum albumin (HSA) (Homo sapiens)
- Construct: purchased Sigma Aldrich
- Sequence (P02768 25-609): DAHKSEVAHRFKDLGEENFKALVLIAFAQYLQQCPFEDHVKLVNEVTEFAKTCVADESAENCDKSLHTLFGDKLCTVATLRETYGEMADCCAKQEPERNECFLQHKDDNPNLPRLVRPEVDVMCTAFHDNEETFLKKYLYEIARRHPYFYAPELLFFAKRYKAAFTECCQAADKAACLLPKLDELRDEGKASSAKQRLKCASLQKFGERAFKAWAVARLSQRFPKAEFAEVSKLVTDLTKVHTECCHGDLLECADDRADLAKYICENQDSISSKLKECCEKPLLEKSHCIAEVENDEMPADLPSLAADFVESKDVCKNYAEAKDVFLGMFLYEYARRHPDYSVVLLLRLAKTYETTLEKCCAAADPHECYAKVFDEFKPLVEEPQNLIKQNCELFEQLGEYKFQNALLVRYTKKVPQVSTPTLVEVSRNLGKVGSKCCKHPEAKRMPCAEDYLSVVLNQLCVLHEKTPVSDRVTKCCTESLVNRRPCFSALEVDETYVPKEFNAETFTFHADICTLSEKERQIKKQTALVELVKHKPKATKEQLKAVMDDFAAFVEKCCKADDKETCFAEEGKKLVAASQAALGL
- protocol-details: Conventional (standard fixed-concentration injection) SPR, HSA-quercetin validation
- Assay type: binding
- applied-conditions: human, pH 7.4
- Experimental: Hydroxyl-gel modified sensor chips and coupling reagents for the Pioneer SPR instrument (SensiQ Technologies, Oklahoma City, OK, USA) were obtained from Xantec (Duesseldorf, Germany). […] All analyses were performed at 25 °C. 10 mM HEPES (pH 7.4) with 150 mM NaCl, 0.005% Tween-20, 1.26 mM EDTA, and 5% DMSO was used as the running buffer. […]
reported-endpoint: Kd

Input line: # returns recorded Kd (system: human serum albumin (HSA) (Homo sapiens)) for O=c1c(O)c(-c2ccc(O)c(O)c2)oc2cc(O)cc(O)c12
Output line: > 500 µM
